- SUBJECT OF TEST: human Lck enzyme (Homo sapiens, UniProt P06239)
- Construct: purchased Carna Biosciences, Inc. 08-170
- Sequence (P06239 whole entry): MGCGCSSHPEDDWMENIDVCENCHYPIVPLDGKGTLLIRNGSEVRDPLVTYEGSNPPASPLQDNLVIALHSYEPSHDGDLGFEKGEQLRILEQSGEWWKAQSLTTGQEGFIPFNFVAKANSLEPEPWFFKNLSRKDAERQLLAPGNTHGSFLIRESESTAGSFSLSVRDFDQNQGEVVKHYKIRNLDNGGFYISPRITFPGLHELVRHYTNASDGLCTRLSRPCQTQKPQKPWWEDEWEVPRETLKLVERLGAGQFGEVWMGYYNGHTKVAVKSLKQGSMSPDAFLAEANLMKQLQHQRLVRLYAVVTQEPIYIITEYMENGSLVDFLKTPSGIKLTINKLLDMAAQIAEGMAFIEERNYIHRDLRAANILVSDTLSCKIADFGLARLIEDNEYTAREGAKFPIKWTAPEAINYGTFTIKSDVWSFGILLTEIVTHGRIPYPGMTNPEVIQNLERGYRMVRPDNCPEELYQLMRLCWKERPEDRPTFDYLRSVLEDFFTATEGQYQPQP
- ASSAY INFO: Lck enzyme inhibitory activity (time-resolved fluorometry, biotinylated peptide phosphorylation)
- Assay type: biochemical
- SETUP CONDITIONS: biotinylated peptide phosphorylation, read-out: LCK_IC50
OBSERVATION TYPE: log10 IC50 (log10 of the value in nM)

COMPOUND	log10 IC50
Cc1cc(C#N)cc(S(=O)(=O)Nc2cc3[nH]c(C(=O)c4cnn(-c5cnc(Oc6ccccc6F)cc5C)c4N)cc3cc2C)n1 [Example 5-1-481]	2.04
Cc1cc(Oc2ccccc2F)ccc1-n1ncc(C(=O)c2cc3cc(OCC(F)F)c(NC4CN(S(C)(=O)=O)C4)cc3[nH]2)c1N [Example 4-23-018]	0.81
Cc1cnc(F)c(S(=O)(=O)Nc2cc3[nH]c(C(=O)c4cnn(-c5cnc(Oc6ccccc6F)cc5C)c4N)cc3cc2C)c1 [Example 5-1-504]	2.15
Cc1cc2cc(C(=O)c3cnn(-c4cnc(Oc5c(F)cccc5F)cc4C)c3N)[nH]c2cc1NS(=O)(=O)c1cncc(Cl)c1 [Example 5-1-541]	2.45
Cc1cc(Oc2ccccc2F)ncc1-n1ncc(C(=O)c2cc3cc(C4CC4)c(NS(=O)(=O)CCCF)cc3[nH]2)c1N [Example 5-1-428]	1.66
Cc1cc(Oc2ccccc2F)ncc1-n1ncc(C(=O)c2cc3cc(OC(F)F)c(NS(=O)(=O)N4CCOCC4)cc3[nH]2)c1N [Example 4-22-002]	1.83

----------
- SUBJECT OF TEST: human Yes1 enzyme (Homo sapiens)
- Construct: made in house
- Sequence (P07947 whole entry): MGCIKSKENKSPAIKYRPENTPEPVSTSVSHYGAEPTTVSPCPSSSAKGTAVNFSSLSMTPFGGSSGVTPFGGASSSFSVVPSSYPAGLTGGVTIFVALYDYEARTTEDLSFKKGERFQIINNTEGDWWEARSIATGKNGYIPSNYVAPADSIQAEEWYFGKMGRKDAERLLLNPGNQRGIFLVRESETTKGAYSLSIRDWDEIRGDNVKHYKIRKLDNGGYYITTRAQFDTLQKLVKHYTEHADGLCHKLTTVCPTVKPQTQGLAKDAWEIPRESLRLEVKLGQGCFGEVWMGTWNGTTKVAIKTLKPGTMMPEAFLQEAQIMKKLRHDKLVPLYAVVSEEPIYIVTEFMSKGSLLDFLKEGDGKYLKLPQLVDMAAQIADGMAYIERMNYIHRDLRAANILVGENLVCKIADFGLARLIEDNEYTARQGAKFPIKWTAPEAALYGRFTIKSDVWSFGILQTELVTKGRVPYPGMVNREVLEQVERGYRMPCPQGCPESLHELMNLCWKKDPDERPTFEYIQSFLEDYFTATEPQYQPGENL
- ASSAY INFO: Yes1 enzyme inhibitory activity (time-resolved fluorometry, biotinylated peptide phosphorylation)
- Format: biochemical
- SETUP CONDITIONS: biotinylated peptide phosphorylation, read-out: YES_IC50
pIC50: −log10 of the molar value.
Classify as follows. Reported pIC50 greater than or equal to 8: true (1). Reported pIC50 below: false (0).

MOLECULE	DISCRETE LABEL
Cc1cc(Oc2ccccc2F)ncc1-n1ncc(C(=O)c2cc3cc(OC(F)F)c(N4C(=O)NC(C)(C)C4=O)cc3[nH]2)c1N [Example 5-1-402]	true (1)
Cc1cc2cc(C(=O)c3cnn(-c4cnc(Oc5ccccc5F)cc4C)c3N)[nH]c2cc1NS(=O)(=O)c1ccccn1 [Example 5-1-477]	true (1)
Cc1cc(Oc2c(F)cccc2F)ncc1-n1ncc(C(=O)c2cc3cc(OCC(F)F)c(N4CCOC4=O)cc3[nH]2)c1N [Example 4-21-005]	true (1)
CONS(=O)(=O)Nc1cc2[nH]c(C(=O)c3cnn(-c4ccc(Oc5ccccc5F)cc4C)c3N)cc2cc1F [Example 4-5-009]	true (1)
Cc1cc(Oc2ccccc2Cl)cc(F)c1-n1ncc(C(=O)c2cc3cc(Cl)c(NS(C)(=O)=O)cc3[nH]2)c1N [Example 4-2-082]	false (0)
Cc1cc(Oc2ccccc2F)cc(F)c1-n1ncc(C(=O)c2cc3cc(OC(F)F)c(NS(=O)(=O)C4CC4)cc3[nH]2)c1N [Example 4-24-005]	true (1)

----------
- SUBJECT OF TEST: human Yes1 enzyme (Homo sapiens)
- Construct: made in house
- ASSAY INFO: Yes1 enzyme inhibitory activity (time-resolved fluorometry, biotinylated peptide phosphorylation)
- Assay type: biochemical
- SETUP CONDITIONS: read-out: YES_IC50
OBSERVATION TYPE: IC50 (nM)

SMILES REPR	MEASUREMENT
Cc1cc(Oc2c(F)cccc2F)ncc1-n1ncc(C(=O)c2cc3cc(SC(F)F)c(NS(=O)(=O)C4CCOCC4)cc3[nH]2)c1N	8.8
Cc1cc(Oc2ccccc2F)ccc1-n1ncc(C(=O)c2cc3cc(F)c(N4C(=O)NC5(CC5)C4=O)cc3[nH]2)c1N	2
Cc1cc(Oc2c(F)cccc2F)ncc1-n1ncc(C(=O)c2cc3cc(OCC(F)F)c(NS(=O)(=O)c4cccc(Cl)c4)cc3[nH]2)c1N	9.2
